Below, each entry is listed with its recorded Binding to HMW (BRU).
Target: Aβ aggregates in the high molecular weight (HMW) fraction of pooled soluble human AD brain extract (>70 kDa to ~700 kDa) (human) (UniProt P05067)
Assay: SPR, immobilized antibody, brain extract fraction at 100 µg/ml injected; Study 3
Report the value in BRU with no unit label.

# return recorded Binding to HMW (BRU) for input Clone 5 (affinity matured VH with parental Vk, human IgG4 S241P / kappa) (antibody, V domains shown) VH: QVQLVQSGAEVKKPGASVKMSCKASGYSFTSYWINWVKQRPGQGLEWIGDVHPGRGVSTYNAKFKSRATLTLDTSISTAYMELSSLRSEDTAVYYCARGALSPYWFFDVWGQGTTVTVSS VL: DVLMTQSPLSLPVTLGQPASISCRSSQSIVHSNGNTYLEWYQQRPGQSPRLLIYKVSNRFSGVPDRFSGSGSGTDFTLKISRVEAEDVGVYYCFQGSHVPFTFGQGTKLEIKR
7.88

Tell me its Binding to HMW (BRU) given Clone 14 (affinity matured VH with parental Vk, human IgG4 S241P / kappa) (antibody, V domains shown) VH: QVQLVQSGAEVKKPGASVKMSCKASGYSFTSYWINWVKQRPGQGLEWIGDVHPGRGVSTYNAKFKSRATLTLDTSISTAYMELSSLRSEDTAVYYCAKSDASGYWFFDVWGQGTTVTVSS VL: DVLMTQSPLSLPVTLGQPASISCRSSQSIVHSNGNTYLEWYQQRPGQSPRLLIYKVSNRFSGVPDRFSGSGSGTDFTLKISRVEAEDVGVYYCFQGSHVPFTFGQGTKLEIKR as the entry.
4.38

For the binder Clone 4 (affinity matured VH with parental Vk, human IgG4 S241P / kappa) (antibody, V domains shown) VH: QVQLVQSGAEVKKPGASVKMSCKASGYSFTSYWINWVKQRPGQGLEWIGDVHPGRGVSTYNAKFKSRATLTLDTSISTAYMELSSLRSEDTAVYYCARVSPTGYWFFDVWGQGTTVTVSS VL: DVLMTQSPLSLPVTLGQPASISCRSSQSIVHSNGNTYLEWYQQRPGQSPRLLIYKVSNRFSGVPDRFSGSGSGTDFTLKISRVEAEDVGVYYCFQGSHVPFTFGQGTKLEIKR , report Binding to HMW (BRU).
6.77

Kindly review the next binder as well.
Return the recorded Binding to HMW (BRU) value; entry: parental antibody, PMN310 humanized antibody variant VH2/Vk5 (human IgG4 S241P / kappa) (antibody, V domains shown) VH: QVQLVQSGAEVKKPGASVKMSCKASGYSFTSYWINWVKQRPGQGLEWIGDVHPGRGVSTYNAKFKSRATLTLDTSISTAYMELSSLRSEDTAVYYCSRSHGNTYWFFDVWGQGTTVTVSS VL: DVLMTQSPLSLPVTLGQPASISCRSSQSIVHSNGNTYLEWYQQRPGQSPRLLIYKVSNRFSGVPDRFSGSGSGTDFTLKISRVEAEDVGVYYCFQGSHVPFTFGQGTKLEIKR
5
